- run description: in vivo
Counter-ions that a name gives are not always drawn.
property: TD50 (mg/kg)
One number for each entry, in mg/kg.

INSERT INTO measurements (compound, property, reading_unit, readout_number) VALUES
  ('CC(NCc1ccc(NCc2ccccc2)cc1)C(N)=O (stereo not shown) [FCE 26749, dihydrochloride, reference compound]', 'TD50', 'mg/kg', 217),
  ('CC(NCc1ccc(NCc2ccc(F)cc2)cc1)C(N)=O.Cl.Cl (stereo not shown)', 'TD50', 'mg/kg', 1680),
  ('CC(NCc1ccc(NCc2ccc(Cl)cc2)cc1)C(N)=O.Cl.Cl (stereo not shown)', 'TD50', 'mg/kg', 1640),
  ('CC(NCc1ccc(NCc2ccc(Br)cc2)cc1)C(N)=O.Cl.Cl (stereo not shown)', 'TD50', 'mg/kg', 1900),
  ('CC(NCc1ccc(NCc2cccc(Cl)c2)cc1)C(N)=O.Cl.Cl (stereo not shown)', 'TD50', 'mg/kg', 663);

Required: TD50, one value per compound below.
1. C[C@H](NCc1ccc(NCc2cccc(F)c2)cc1)C(N)=O [FCE 27232, dihydrochloride]
2. CC(NCc1ccc(NCCc2ccccc2)cc1)C(N)=O.Cl.Cl (stereo not shown)

Key:
[516, 917]

The reported measurements were obtained from patent US5449692A.
